// data source = patent US20230039165A1

Measurement target: T1, Recombinant human IGFBP3 (human, UniProt P17936 28-291)
T1 construct: also called rhIGFBP3; hIGFBP3
T1 sequence (P17936 28-291 limits assumed): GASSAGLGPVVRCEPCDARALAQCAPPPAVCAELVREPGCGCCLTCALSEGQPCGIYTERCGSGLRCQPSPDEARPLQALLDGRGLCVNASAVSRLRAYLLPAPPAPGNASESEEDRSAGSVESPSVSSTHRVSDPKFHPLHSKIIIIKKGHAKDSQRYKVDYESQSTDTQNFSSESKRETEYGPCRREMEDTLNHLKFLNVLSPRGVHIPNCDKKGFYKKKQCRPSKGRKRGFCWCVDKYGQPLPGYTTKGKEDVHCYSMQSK
Assay notes: Octet BLI; mAb captured via Fc on anti-mouse/anti-human IgG Fc biosensor, human IGFBP3 at 150 nM
pKd: −log10 of the molar value.
Endpoint: pKd

Report pKd for E24 (antibody, V domains shown, From Trianni Mouse hybridomas: chimeric mAb with human VH and VK and mouse constant domains; also called anti-IGFBP3 mAb E24) VH: QVQLVQSGAEVKKPGASVKVSCKASGYTFTNYGISWVRQAPGQGLEWMGWINAYNGNTNYAQKLQGRVTMTTVTYTSTAYMELRSLRSDDTAVYYCARDRGYSSSPYYYYYGMDVWGQGTTVTVSS VL: AIQMTQSPSSLSASVGDKVTITCRASQGIRNALGWYQQKPGTAPKLLIYAASSLQSGVPSRFSGSGSGTDFTLTISSLQPEDSATYYCLQDYNYPLTFGGGTKVEIK please.
< 12.00
